assay: Phase 1 study, food effect (fed and fasted state), single oral dose; type: in vivo, healthy subjects (humans); details: male, human, plasma, po, 100 mg, Fed; single oral dose 100 mg API; read-out: Tmax

- MOLECULE: "CC/C=C\\C/C=C\\C/C=C\\C/C=C\\C/C=C\\CCCCOC(CC)C(=O)O (stereo not shown)"
  Tmax, h: 3.6

* * *

assay: Phase 1 study, pharmacokinetics in male and female, 300 mg b.i.d for 14 days; assay type: in vivo, healthy subjects (humans); settings: human, plasma, oral; Female, Day 14, 300 mg b.i.d, composition No. 27; read-out: Geometric mean Cmax

- COMPOUND: "CC/C=C\\C/C=C\\C/C=C\\C/C=C\\C/C=C\\CCCCOC(CC)C(=O)O (stereo not shown) [API]"
  UNITS_SYMBOL: "ng/mL"
  Cmax: 15800

* * *

test: Phase 1 study, food effect (fed and fasted state), single oral dose; format: in vivo, healthy subjects (humans); conditions: male, human, plasma, po, 100 mg, Fed; single oral dose 100 mg API, composition No. 27 in capsules, healthy male subjects; read-out: AUC0-24 h

- COMPOUND: "CC/C=C\\C/C=C\\C/C=C\\C/C=C\\C/C=C\\CCCCOC(CC)C(=O)O (stereo not shown) [API]"
  UNITS_SYMBOL: "ng·h/mL"
  AUC(0-t): 15000

* * *

test: Phase 1 study, pharmacokinetics in male and female, 300 mg b.i.d for 14 days; type: in vivo, healthy subjects (humans); details: human, plasma, oral; Female, Day 14, 300 mg b.i.d, composition No. 27; read-out: Geometric mean AUC0-τ
ENDPOINT: AUC (ng·h/mL)

- COMPOUND: "CC/C=C\\C/C=C\\C/C=C\\C/C=C\\C/C=C\\CCCCOC(CC)C(=O)O (stereo not shown) [API]"
  DATA_VALUE: 75800

* * *

test: Phase 1 study, food effect (fed and fasted state), single oral dose; assay type: in vivo, healthy subjects (humans); conditions: male, human, plasma, po, 100 mg, Fed; single oral dose 100 mg API
ENDPOINT: Cmax

- MOLECULE: "CC/C=C\\C/C=C\\C/C=C\\C/C=C\\C/C=C\\CCCCOC(CC)C(=O)O (stereo not shown) [API]"
  DATA_VALUE: "2700 ng/mL"

* * *

experiment: Phase 1 study, food effect (fed and fasted state), single oral dose; type: in vivo, healthy subjects (humans); conditions: male, human, plasma, po, 100 mg, Fasted; single oral dose 100 mg API; read-out: Tmax
ENDPOINT: Tmax (h)

- COMPOUND: "CC/C=C\\C/C=C\\C/C=C\\C/C=C\\C/C=C\\CCCCOC(CC)C(=O)O (stereo not shown)"
  ENDPOINT: "Tmax"
  DATA_VALUE: 1.4

* * *

assay: Phase 1 study, food effect (fed and fasted state), single oral dose; format: in vivo, healthy subjects (humans); conditions: male, human, plasma, po, 100 mg, Fed; single oral dose 100 mg API

- COMPOUND: "CC/C=C\\C/C=C\\C/C=C\\C/C=C\\C/C=C\\CCCCOC(CC)C(=O)O (stereo not shown)"
  UNITS_SYMBOL: "h"
  half-life: 6.29

* * *

assay: Phase 1 study, food effect (fed and fasted state), single oral dose; type: in vivo, healthy subjects (humans); details: male, human, plasma, po, 100 mg, Fasted; single oral dose 100 mg API, composition No. 27 in capsules, healthy male subjects; read-out: AUC0-24 h
ENDPOINT: AUC(0-t) (ng·h/mL)

- COMPOUND: "CC/C=C\\C/C=C\\C/C=C\\C/C=C\\C/C=C\\CCCCOC(CC)C(=O)O (stereo not shown) [API]"
  DATA_VALUE: 14000

* * *

test: Phase 1 study, pharmacokinetics in male and female, 300 mg b.i.d for 14 days; format: in vivo, healthy subjects (humans); details: human, plasma, oral; Male, Day 14, 300 mg b.i.d, composition No. 27; read-out: Geometric mean AUC0-τ
ENDPOINT: AUC (ng·h/mL)

- MOLECULE: "CC/C=C\\C/C=C\\C/C=C\\C/C=C\\C/C=C\\CCCCOC(CC)C(=O)O (stereo not shown) [API]"
  DATA_VALUE: 80900
